Each entry below carries its recorded logP.
A bare number is all that is needed in reply.

[
  {
    "compound": "COc1cc(S(C)=O)ccc1-c1nc2ncncc2[nH]1 (stereo not drawn)",
    "number": 0.53
  }
]

Prompt: What logP value was documented for this compound, O=c1n[n+]([O-])ccn1C1OC(CO)C(O)C1O (stereo not drawn) ?
Completion: -2.43

Prompt: Entry COc1ccc(S(N)(=O)=O)cc1C(=O)NCC1CCCN1Cc1ccc(F)cc1 (stereo not drawn) please
Completion: 2.46

====

Each entry below carries its recorded logP.
A bare number is all that is needed in reply.

Here's what some known entries look like.
[
  {
    "molecule": "O=[N+]([O-])c1cccc2c1ccc[n+]2[O-]",
    "logP": 0.49
  },
  {
    "molecule": "CN(C)CCCCc1cccnc1",
    "logP": 1.49
  },
  {
    "molecule": "Cc1cnc2ccccc2c1",
    "logP": 2.53
  }
]

Prompt: What logP value was documented for this molecule, "CC(=O)Oc1ccccc1C" ?
Completion: 1.93

====

Binary call on logP: MET from 3 upward, NOT MET beneath that.

[
  {
    "compound": "Cc1cc2ccccc2cc1C",
    "assigned-category": "MET"
  },
  {
    "compound": "CNc1ccccc1C",
    "assigned-category": "NOT MET"
  },
  {
    "compound": "CC1CCCC1",
    "assigned-category": "MET"
  },
  {
    "compound": "CCCN(CCC)C(=O)SCC",
    "assigned-category": "MET"
  },
  {
    "compound": "CNC(=O)Oc1ccc(C(=O)OC)cc1",
    "assigned-category": "NOT MET"
  },
  {
    "compound": "CC(C)(N)Cc1ccccc1",
    "assigned-category": "NOT MET"
  },
  {
    "compound": "CN(C)C(N(C)C)=S(I)c1ccc(Cl)c(Cl)c1 (centres undefined)",
    "assigned-category": "NOT MET"
  },
  {
    "compound": "CC(=O)Nc1ccc(Br)cc1",
    "assigned-category": "NOT MET"
  }
]

Prompt: Dear colleague, could you confirm whether "NNC(=O)c1ccccc1Cl" has logP at or above 3?
Completion: NOT MET

Prompt: Entry "Cc1[nH]cnc1CSCCNc1cc[nH]c(=O)n1" please
Completion: NOT MET

Prompt: Entry "Cc1ccnc2c(O)ccc(O)c12" please
Completion: NOT MET

Prompt: Entry "O=C(O)C=Cc1ccc([N+](=O)[O-])cc1" please
Completion: NOT MET

Prompt: Entry "O=S(=O)(Nc1ccc(Cl)cc1)C(F)F" please
Completion: NOT MET

Prompt: Entry "COc1noc2c1CNCC2" please
Completion: NOT MET

Prompt: Entry "CC(=O)Nc1ccccn1" please
Completion: NOT MET

Prompt: Entry "O=CN1CCCC1" please
Completion: NOT MET

Prompt: Entry "O=C(NP(=O)(N1CC1)N1CC1)c1ccccc1I" please
Completion: NOT MET

Prompt: Entry "CCC(=O)OCC(=O)[C@@]1(OC(=O)CC)[C@@H](C)C[C@H]2[C@@H]3CCC4=CC(=O)C=C[C@]4(C)[C@@]3(F)[C@@H](O)C[C@@]21C" please
Completion: MET

These entries and their values trace back to the OPERA property sets (Mansouri et al. 2018).
